# test description: Rat in situ intra-tracheal infusion of THX-polymer formulation
# Format: in vivo
# particulars: rat, lung, other: in situ intra-tracheal infusion, 8 mg/kg, 200 μl, infused over 30 mins, harvested at 2 hours, individual rats, read-out: Tissue Levels Lung
reported endpoint: concentration at 2 h
Dear colleague, please send the value followed by its unit.

// query Please look up its concentration at 2 h: O=C1CCC(N2C(=O)c3ccccc3C2=O)C(=O)N1 (racemic) [THX]
// result 5800 ng/g

----------
# test description: Solubility of analytes and polymer in solvents, dissolution media and water
# Format: physicochemical
# particulars: dissolution media; read-out: Solubility
reported endpoint: solubility

compound	val
O=c1[nH]cc(F)c(=O)[nH]1 [FLX, 5-fluorouracil]	42100 µg/mL
CCCCCOC(=O)Nc1nc(=O)n([C@@H]2O[C@H](C)[C@@H](O)[C@H]2O)cc1F [CPX, Capecitabine]	> 10000 µg/mL
CC(=O)O[C@H]1C(=O)[C@@]2(C)[C@H]([C@H](OC(=O)c3ccccc3)[C@]3(O)C[C@H](OC(=O)[C@H](O)[C@@H](NC(=O)c4ccccc4)c4ccccc4)C(C)=C1C3(C)C)[C@]1(OC(C)=O)CO[C@@H]1C[C@@H]2O [PTX, Paclitaxel]	50 to 60 µg/mL
O=C1CCC(N2C(=O)c3ccccc3C2=O)C(=O)N1 (racemic) [THX]	3340 µg/mL

Switching to the query record.
// query Please look up its solubility: CCCCCCNC(=O)n1cc(F)c(=O)[nH]c1=O [HCFU, Carmofur]
// result 50 to 60 µg/mL

----------
# test description: Drug distribution 28-day PK study in naïve mice implanted with ETDS
# Assay type: in vivo
# particulars: mouse, plasma, subcutaneous, Day 7, FR ETDS, individual mice; read-out: Plasma Conc.
reported endpoint: concentration at 7 day (ng/mL)
Field format: number, assumed ng/mL, no unit text.

// query Please look up its concentration at 7 day: O=C1CCC(N2C(=O)c3ccccc3C2=O)C(=O)N1 (racemic)
// result 5.42

----------
Measured solubility values are reported for all entries that follow.
# test description: Solubility of analytes and polymer in solvents, dissolution media and water
# Type: physicochemical
# particulars: water; read-out: Solubility

// query Please look up its solubility: O=C1CCC(N2C(=O)c3ccccc3C2=O)C(=O)N1 (racemic)
// result 1500 µg/mL

// query Now give it for O=c1[nH]cc(F)c(=O)[nH]1 too.
// result > 20000 µg/mL

// query Now give it for CCCCCOC(=O)Nc1nc(=O)n([C@@H]2O[C@H](C)[C@@H](O)[C@H]2O)cc1F too.
// result > 10000 µg/mL

// query Now give it for CCCCCCNC(=O)n1cc(F)c(=O)[nH]c1=O too.
// result 20 to 30 µg/mL

// query Now give it for CC(=O)O[C@H]1C(=O)[C@@]2(C)[C@H]([C@H](OC(=O)c3ccccc3)[C@]3(O)C[C@H](OC(=O)[C@H](O)[C@@H](NC(=O)c4ccccc4)c4ccccc4)C(C)=C1C3(C)C)[C@]1(OC(C)=O)CO[C@@H]1C[C@@H]2O too.
// result > 20000 µg/mL

----------
# test description: Drug distribution 28-day PK study in naïve mice implanted with ETDS
# Assay type: in vivo
# particulars: mouse, plasma, subcutaneous, HCFU; naïve mice, day 28, n = 3; read-out: Drug Exposure, Plasma
reported endpoint: concentration at 28 day
Dear colleague, please send the value followed by its unit.

// query Please look up its concentration at 28 day: CCCCCCNC(=O)n1cc(F)c(=O)[nH]c1=O
// result 48.2 ng/mL

----------
Measured solubility values are reported for all entries that follow.
# test description: Solubility of analytes and polymer in solvents, dissolution media and water
# Type: physicochemical
# particulars: THF, organic solvent or mixture; read-out: Solubility
Field format: number, assumed mg/mL, no unit text.

compound	measure unit	solubility
O=c1[nH]cc(F)c(=O)[nH]1 [FLX, 5-fluorouracil]	mg/mL	42.1

// query Please look up its solubility: O=C1CCC(N2C(=O)c3ccccc3C2=O)C(=O)N1 (racemic) [THX]
// result 3.34

----------
# test description: Solubility of analytes and polymer in solvents, dissolution media and water
# Assay type: physicochemical
# particulars: DMF, organic solvent or mixture; read-out: Solubility
Measured solubility values are reported for all entries that follow.
Field format: number, assumed mg/mL, no unit text.

molecule	reported endpoint	val
O=c1[nH]cc(F)c(=O)[nH]1	solubility	45.8
O=C1CCC(N2C(=O)c3ccccc3C2=O)C(=O)N1 (racemic)	solubility	75.5

Switching to the query record.
// query Please look up its solubility: CC(=O)O[C@H]1C(=O)[C@@]2(C)[C@H]([C@H](OC(=O)c3ccccc3)[C@]3(O)C[C@H](OC(=O)[C@H](O)[C@@H](NC(=O)c4ccccc4)c4ccccc4)C(C)=C1C3(C)C)[C@]1(OC(C)=O)CO[C@@H]1C[C@@H]2O
// result 154

----------
# test description: Drug distribution 28-day PK study in naïve mice implanted with ETDS
# Assay type: in vivo
# particulars: mouse, skin tissue at implantation site, subcutaneous, Day 14, FR ETDS, individual mice; read-out: Tissue Conc. site of implant
Measured concentration at 14 day values are reported for all entries that follow.
Field format: number, assumed ng/g, no unit text.

molecule	val
CC1(C)C(/C=C/C=C/C=C/C=C2\N(CCCCS(=O)(=O)O)c3ccc4ccccc4c3C2(C)C)=[N+](CCCCS(=O)(=O)[O-])c2ccc3ccccc3c21	12.2

Switching to the query record.
// query Please look up its concentration at 14 day: O=C1CCC(N2C(=O)c3ccccc3C2=O)C(=O)N1 (racemic)
// result 30.9

----------
# test description: in vivo
# particulars: rat, 4 mg/Kg
# From the text: The animals were anesthetized while dosing. […] Samples were frozen until processed for LC-MS analysis. The equipment used was a SCIEX PE 3000. The supernatant extract was subject to LCMS analysis.
reported endpoint: concentration at 20 min (ng/mL)
Field format: number, assumed ng/mL, no unit text.

// query Please look up its concentration at 20 min: O=C1CCC(N2C(=O)c3ccccc3C2=O)C(=O)N1 (racemic)
// result 190

----------
Measured solubility values are reported for all entries that follow.
# test description: Solubility of analytes and polymer in solvents, dissolution media and water
# Format: physicochemical
# particulars: acetonitrile, organic solvent or mixture; read-out: Solubility
Field format: number, assumed µg/mL, no unit text.

// query Please look up its solubility: CC(=O)O[C@H]1C(=O)[C@@]2(C)[C@H]([C@H](OC(=O)c3ccccc3)[C@]3(O)C[C@H](OC(=O)[C@H](O)[C@@H](NC(=O)c4ccccc4)c4ccccc4)C(C)=C1C3(C)C)[C@]1(OC(C)=O)CO[C@@H]1C[C@@H]2O [PTX, Paclitaxel]
// result 44300

// query Now give it for O=c1[nH]cc(F)c(=O)[nH]1 [FLX, 5-fluorouracil] too.
// result 1810

// query Now give it for O=C1CCC(N2C(=O)c3ccccc3C2=O)C(=O)N1 (racemic) [THX] too.
// result 790

----------
# test description: Drug distribution 28-day PK study in naïve mice implanted with ETDS
# Assay type: in vivo
# particulars: mouse, plasma, subcutaneous, Day 4, fast release (FR) ETDS, individual mice; read-out: Plasma Conc.
reported endpoint: concentration at 4 day (ng/mL)
Field format: number, assumed ng/mL, no unit text.

// query Please look up its concentration at 4 day: CC1(C)C(/C=C/C=C/C=C/C=C2\N(CCCCS(=O)(=O)O)c3ccc4ccccc4c3C2(C)C)=[N+](CCCCS(=O)(=O)[O-])c2ccc3ccccc3c21 [ICG, Indocyanine green]
// result 3.89

----------
# test description: in vivo
# particulars: rat, 4 mg/Kg
reported endpoint: concentration at 40 min (ng/mL)
Field format: number, assumed ng/mL, no unit text.

// query Please look up its concentration at 40 min: O=C1CCC(N2C(=O)c3ccccc3C2=O)C(=O)N1 (racemic) [THX]
// result 440

----------
Measured concentration at 28 day values are reported for all entries that follow.
# test description: Drug distribution 28-day PK study in naïve mice implanted with ETDS
# Assay type: in vivo
# particulars: mouse, skin tissue at implantation site, subcutaneous, Day 28, FR ETDS, individual mice; read-out: Tissue Conc. site of implant
Field format: number, assumed ng/g, no unit text.

molecule	concentration at 28 day [ng/g]
CC1(C)C(/C=C/C=C/C=C/C=C2\N(CCCCS(=O)(=O)O)c3ccc4ccccc4c3C2(C)C)=[N+](CCCCS(=O)(=O)[O-])c2ccc3ccccc3c21 [ICG, Indocyanine green]	12.1

Switching to the query record.
// query Please look up its concentration at 28 day: CC(=O)O[C@H]1C(=O)[C@@]2(C)[C@H]([C@H](OC(=O)c3ccccc3)[C@]3(O)C[C@H](OC(=O)[C@H](O)[C@@H](NC(=O)c4ccccc4)c4ccccc4)C(C)=C1C3(C)C)[C@]1(OC(C)=O)CO[C@@H]1C[C@@H]2O [PTX, Paclitaxel]
// result 18900
